Values compiled from PubChem BioAssay.

Consider the following compounds and their measured inhibition readings.
- measurementNotes: blockers of RIG-like receptor reporter activation – cell-based, Sendai virus stimulus, luciferase, 10K MLSCN set, TLR/RLR signaling modifier project, primary screen (AID 602276);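 note: firefly luciferase from ISG56 promoter only with Renilla not read in this screen; 0% = Sendai virus plus DMSO and 100% = medium plus DMSO without virus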
- conditionInfo: HEK293 RL24 IRF3 luciferase reporter, at 10 µM, active compounds read high
quantityKind: inhibition (%)

compound: COCCOc1nc2ccccc2nc1C
resultValue: 16.4

compound: COc1ccc(CN(C)CC(=O)c2c(N)n(Cc3ccccc3)c(=O)n(C)c2=O)c(OC)c1
resultValue: 17.1

compound: NC(=O)SCC(=O)Nc1cccc(Cl)c1
resultValue: 18.6

compound: C1COC(NC(C2CC2)C2CC2)=N1
resultValue: -6

compound: Cc1ccc(S(=O)(=O)NCCc2ccncc2)cc1
resultValue: 7.81

compound: C=CCOc1ccc(/C(O)=C2\C(=O)C(=O)N(CCOC)C2c2cccnc2)cc1 (stereo not drawn)
resultValue: 6.88

compound: CCC(C)C(NC(=O)C1CCC(C)CC1)C(=O)NCc1cccnc1 (stereo not drawn)
resultValue: 12.4

compound: COc1ccccc1NC(=O)c1ccc(NC(=O)CSc2nnnn2C)cc1
resultValue: 12.1

compound: O=C(Nc1ccc(Cl)cc1C(=O)Nc1ccncc1)c1ccco1
resultValue: 18.3

compound: COc1cc2nc(N3CCN(C(=O)C4COc5ccccc5O4)CC3)nc(N)c2cc1OC (stereo not drawn)
resultValue: 5.11

compound: CCN(CC)c1ccc(CNc2ccc(Br)cn2)cc1
resultValue: -41.1

compound: O=C(Nc1ccc2c(c1)OCO2)C1CCCN1C(=O)Nc1ccccc1F (stereo not drawn)
resultValue: 16.1

compound: CCOC(=O)C1CCCN(c2nc3ccccc3nc2C(C#N)C(=O)NCc2ccccc2)C1 (stereo not drawn)
resultValue: 7.48

compound: CCOC(=O)C1=C(C)NC(SC(C)=O)=NC1c1ccc(OC(C)=O)c(OC)c1 (stereo not drawn)
resultValue: 1.93

compound: COc1ccc(N2C(=O)CC(NC3CC3)C2=O)cc1 (stereo not drawn)
resultValue: 16.4

compound: COc1ccc(Cc2nc3ccc(S(N)(=O)=O)cc3[nH]2)cc1OC
resultValue: 9.58

compound: O=C(C1CCN(S(=O)(=O)N2CCC3(CC2)OCCO3)CC1)N1CCOCC1
resultValue: -6.46

compound: O=C(CCn1nc(-c2ccc(Cl)cc2)ccc1=O)N1CCN(c2ccccn2)CC1
resultValue: 7.53

compound: O=C(CCCN1CCC(O)(c2ccc(Cl)cc2)CC1)c1ccc(F)cc1
resultValue: -13

compound: CCOC(=O)N1CCN(S(=O)(=O)c2ccc(Br)s2)CC1
resultValue: 21.3

compound: CCn1c(=O)n(CC(=O)NCc2ccccc2OC)c(=O)c2ccccc21
resultValue: 18.2

compound: COc1cc(NC(=O)c2cc(-n3cnnc3)ccc2Cl)cc(OC)c1
resultValue: 15.2

compound: COc1ccc(Cn2nnnc2C(c2ccncc2)N2CCOCC2)cc1 (stereo not drawn)
resultValue: 7.51
